Where do the numbers come from? From ChEMBL document CHEMBL3997794.

TARGET_OF_ASSAY: Histone deacetylase 3 (Homo sapiens)
Sequence (O15379 whole entry): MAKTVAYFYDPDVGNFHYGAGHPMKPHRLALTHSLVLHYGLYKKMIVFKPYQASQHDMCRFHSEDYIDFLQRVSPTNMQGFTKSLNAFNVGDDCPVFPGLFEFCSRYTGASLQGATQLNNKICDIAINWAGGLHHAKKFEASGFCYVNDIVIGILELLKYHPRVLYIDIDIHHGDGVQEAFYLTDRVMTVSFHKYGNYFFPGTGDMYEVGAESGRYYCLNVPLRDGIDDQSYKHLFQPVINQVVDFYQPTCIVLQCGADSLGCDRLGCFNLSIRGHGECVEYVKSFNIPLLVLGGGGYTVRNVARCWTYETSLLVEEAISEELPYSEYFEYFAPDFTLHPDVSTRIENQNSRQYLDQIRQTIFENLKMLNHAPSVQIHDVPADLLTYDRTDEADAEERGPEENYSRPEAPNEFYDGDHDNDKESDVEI
READOUT_NAME: IC50

Known IC50 results, listed for orientation:
Give the measured IC50 of CC(C)(C)OC(=O)CC[C@H]1N=C(c2ccccc2)c2ccccc2NC1=O .
> 30 µM

Need IC50 of O=C(CCCCN1C(=O)[C@H](CC(=O)NO)N=C(c2ccccc2)c2ccccc21)NO , thanks.
10.4 µM

Which IC50 value belongs to COC(=O)CCCCN1C(=O)[C@H](Cc2cc3ccccc3n2C(=O)OC(C)(C)C)N=C(c2ccccc2)c2ccccc21 ?
> 30 µM

Endpoint output: IC50 of CC(C)(C)OC[C@@H]1N=C(c2ccccc2)c2ccccc2NC1=O . Value?
> 30 µM

Further cases:
What IC50 value was documented for this molecule, O=C(O)CC[C@@H]1N=C(c2ccccc2)c2ccccc2N(CCCCC(=O)NO)C1=O ?
8.71 µM

Fill blank: measured IC50 of the molecule CC(C)C[C@@H]1N=C(c2ccccc2)c2ccccc2N(CCCCC(=O)O)C1=O is ____.
> 30 µM

###

TARGET_OF_ASSAY: Histone deacetylase 8 (Homo sapiens) (UniProt Q9BY41)
Sequence (Q9BY41 whole entry): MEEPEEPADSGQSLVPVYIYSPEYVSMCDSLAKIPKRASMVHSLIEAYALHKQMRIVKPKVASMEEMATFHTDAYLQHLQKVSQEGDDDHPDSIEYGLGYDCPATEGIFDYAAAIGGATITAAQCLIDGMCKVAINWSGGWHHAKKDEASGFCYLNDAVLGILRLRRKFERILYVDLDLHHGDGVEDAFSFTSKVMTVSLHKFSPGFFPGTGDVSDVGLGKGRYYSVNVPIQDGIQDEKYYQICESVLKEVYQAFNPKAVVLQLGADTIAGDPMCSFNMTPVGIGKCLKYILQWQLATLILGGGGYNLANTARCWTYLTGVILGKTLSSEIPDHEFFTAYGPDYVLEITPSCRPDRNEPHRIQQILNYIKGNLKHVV
PROTOCOL_TEXT: Inhibition of human KDAC8 at 30 uM after 60 mins by fluorescence assay relative to control
Assign Met whenever inhibition does not fall below 3%; assign Not met whenever it does.

Determine whether measured inhibition meets or exceeds 3% for Cc1c(C)c(S(=O)(=O)NC(=N)NCCC[C@@H]2N=C(c3ccccc3)c3ccccc3N(CCCCC(=O)NO)C2=O)c(C)c2c1OC(C)(C)C2
Met

Is it the case that O=C(CC[C@@H]1N=C(c2ccccc2)c2ccccc2NC1=O)NC(c1ccccc1)(c1ccccc1)c1ccccc1 has inhibition reaching or exceeding 3%?
Not met

Given COC(=O)CCCCN1C(=O)[C@H](CCCCNC(=O)OC(C)(C)C)N=C(c2ccccc2)c2ccccc21 , state whether its inhibition is at least 3%.
Not met

Please tell me: is the molecule O=C(CCCCN1C(=O)[C@H](Cc2ccccc2)N=C(c2ccccc2)c2ccccc21)NO at or over 3% in terms of inhibition?
Met

Assess whether reported inhibition for CC[C@@H](C)[C@@H]1N=C(c2ccccc2)c2ccccc2N(CCCCC(=O)NO)C1=O sits at 3% or higher.
Met

Hello, I need to know if O=C(CCCNC(=O)C[C@@H]1N=C(c2ccccc2)c2ccccc2NC1=O)NO has measured inhibition not below 3%. Thanks!
Met

Others:
Check if inhibition >= 3% (inclusive). Item: CC(C)(C)OC(=O)C[C@H]1N=C(c2ccccc2)c2ccccc2NC1=O
Not met

Could you tell me if the measured inhibition of O=C(CC[C@H]1N=C(c2ccccc2)c2ccccc2NC1=O)NO reaches 3% or more?
Met

Confirm if inhibition reported for the molecule O=C(O)CCCCN1C(=O)[C@H](CCC(=O)O)N=C(c2ccccc2)c2ccccc21 is 3% or above.
Met

###

TARGET_OF_ASSAY: Histone deacetylase 8 (Homo sapiens) (UniProt Q9BY41)
PROTOCOL_TEXT: Inhibition of human KDAC8 at 30 uM after 60 mins by fluorescence assay relative to control
READOUT_NAME: inhibition (%)
I only need the number, in %, no unit after it.

Please review the entries below; each comes with its answer.
For C[C@@H](OCc1ccccc1)[C@@H]1N=C(c2ccccc2)c2ccccc2N(CCCCC(=O)NO)C1=O , what is its reported inhibition?
50.1

Report inhibition for CC[C@H](C)[C@@H]1N=C(c2ccccc2)c2ccccc2N(CCCCC(=O)OC)C1=O please.
2.38

# get_value(readout='inhibition', item= O=C(C[C@@H]1N=C(c2ccccc2)c2ccccc2NC1=O)NO )
12.2

If you can, please state the reported inhibition value of CC(C)C[C@@H]1N=C(c2ccccc2)c2ccccc2NC1=O .
0

Give its inhibition value. Item: O=C(O)CCCCN1C(=O)[C@H](Cc2cncn2C(c2ccccc2)(c2ccccc2)c2ccccc2)N=C(c2ccccc2)c2ccccc21
10.4

Return reported inhibition; argument: CC(C)(C)OC(=O)n1c(C[C@@H]2N=C(c3ccccc3)c3ccccc3N(CCCCC(=O)O)C2=O)cc2ccccc21
23.2

---
If you can, please state the reported inhibition value of CC(C)(C)OC(=O)CC[C@H]1N=C(c2ccccc2)c2ccccc2NC1=O .
4.35

Can you share its inhibition? I mean this molecule: O=C(O)CC[C@H]1N=C(c2ccccc2)c2ccccc2NC1=O
0

What measured inhibition goes with CC(C)[C@@H]1N=C(c2ccccc2)c2ccccc2N(CCCCC(=O)O)C1=O ?
3.18

Data request, read-out inhibition, for CC(C)[C@@H]1N=C(c2ccccc2)c2ccccc2N(CCCCC(=O)NO)C1=O
59.4

Find the recorded inhibition belonging to COC(=O)CCCCN1C(=O)[C@H](CCSC)N=C(c2ccccc2)c2ccccc21 and report it.
0

Requested field: inhibition. Item: COC(=O)CCCCN1C(=O)[C@H](Cc2cncn2C(c2ccccc2)(c2ccccc2)c2ccccc2)N=C(c2ccccc2)c2ccccc21
12.1
